Biological target: UniProt O42713
Sequence (O42713 whole entry): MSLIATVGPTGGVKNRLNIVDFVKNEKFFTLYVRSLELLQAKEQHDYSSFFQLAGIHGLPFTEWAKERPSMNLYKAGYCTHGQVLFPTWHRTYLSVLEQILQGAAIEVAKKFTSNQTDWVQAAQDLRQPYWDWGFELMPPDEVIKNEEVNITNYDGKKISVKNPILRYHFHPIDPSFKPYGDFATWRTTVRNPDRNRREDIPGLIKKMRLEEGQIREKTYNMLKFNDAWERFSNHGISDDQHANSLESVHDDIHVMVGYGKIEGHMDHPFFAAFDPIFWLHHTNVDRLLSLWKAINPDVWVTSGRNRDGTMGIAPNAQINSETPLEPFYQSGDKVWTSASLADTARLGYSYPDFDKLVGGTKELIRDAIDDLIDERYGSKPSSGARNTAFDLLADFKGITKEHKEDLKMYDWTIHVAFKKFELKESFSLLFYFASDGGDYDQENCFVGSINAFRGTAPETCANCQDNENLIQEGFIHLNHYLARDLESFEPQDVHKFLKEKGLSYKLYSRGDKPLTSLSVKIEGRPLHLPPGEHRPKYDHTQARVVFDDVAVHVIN
Experiment: Inhibition of mushroom tyrosinase using L-tyrosine as substrate assessed as dopachrome formation at 100 uM measured for 10 mins by spectrophotometric method relative to control
Activity calls are given as the source filed them. The calls are words filed in the database; no cut-off is given here.
reported-metric: inhibition

COc1ccc(P2(=S)NC(=S)C3=C(N2)Oc2c(c(=S)oc4ccccc24)C3c2ccccc2)cc1 (single isomer, unassigned; diastereomer 1) ... inactive
COc1ccc(P2(=S)NC(=S)C3=C(N2)Oc2c(c(=S)oc4ccccc24)C3c2ccc(Cl)cc2)cc1 (single isomer, unassigned; diastereomer 1) ... 80.7%
COc1ccc(C2C3=C(NP(=S)(c4ccc(OC)cc4)NC3=S)Oc3c2c(=S)oc2ccccc32)cc1 (single isomer, unassigned; diastereomer 1) ... inactive
COc1ccc(P2(=S)NC(=S)C3=C(N2)Oc2c(c(=S)oc4ccccc24)C3c2ccccc2)cc1 (single isomer, unassigned; diastereomer 2) ... inactive
COc1ccc(C2C3=C(NP(=S)(c4ccc(OC)cc4)NC3=S)Oc3c2c(=S)oc2ccccc32)cc1 (single isomer, unassigned; diastereomer 2) ... 68.8%

Provide each entry's inhibition from the list below.
1. COc1ccc(P2(=S)NC(=S)C3=C(N2)Oc2c(c(=S)oc4ccccc24)C3c2ccc(C)cc2)cc1 (single isomer, unassigned; diastereomer 2)
2. COc1ccc(P2(=S)NC(=S)C3=C(N2)Oc2c(c(=S)oc4ccccc24)C3c2ccc(OC)c(OC)c2)cc1 (single isomer, unassigned; diastereomer 1)

Solution:
61.8%
inactive

Exercise: Look at this compound and give its reported inhibition. COc1ccc(P2(=S)NC(=S)C3=C(N2)Oc2c(c(=S)oc4ccccc24)C3c2ccc(C)cc2)cc1 (single isomer, unassigned; diastereomer 1)
Solution: 58.5%
